Test: chemical genetic growth profiling, strain panel (AID 1159580);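 also: tested at 20 µM; growth read once vehicle control cultures reached saturation at 30 °C; 1 = growth at the plate median or of vehicle wells; lower values mean less growth of the strain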
Conditions: S. cerevisiae deletion strains, growth OD, locus YDR101C, strain arx1, active compounds read low
Screen size: about 5,500 compounds; about 2,000 (36%) were called active. Another 18% or so got no clear call; they are omitted. This is one part of the list. Where a SMILES comes first, the peptide text is derived from it. Bridges are numbered along the chain shown (N, C = ends). [ ]: non-standard residue; d: D form. The star is where a group is joined. ξ: configuration not given here. ξDab(CH2SO3H) = NC(CCNCS(=O)(=O)O)C(=O)O; Heptanoyl(6-Me) = CC(C)CCCCC(=O)*; Dab = NCC[CH](N)C(=O)O
For each record, write down the corresponding normalized growth.
Give bare numbers.

Consider the following illustrative entries.
Compound | normalized growth
Nc1ccc(S(=O)(=O)Nc2cnc3ccccc3n2)cc1 | 1
NNc1nncc2ccccc12 | 1.01
Nc1ccc(S(=O)(=O)Nc2ccnn2-c2ccccc2)cc1 | 1.01
C[C@@H]1CC[C@]2(C(=O)O)CC[C@]3(C)C(=CCC4[C@@]5(C)CC[C@H](O)C(C)(C)C5CC[C@]43C)C2[C@H]1C (stereo partly drawn) | 1.01
CC(=O)NCc1c(I)c(NC(C)=O)c(I)c(C(=O)O)c1I | 0.996

Please supply normalized growth for each of the following items, keeping them in order.
1. Nc1c2c(nc3ccccc13)CCCC2
2. C/C=C1\[C@H]2C=C(C)C[C@]1(N)c1ccc(=O)[nH]c1C2
3. CCC(C)C(NC)C(=O)O (stereo not drawn)
4. COC(=O)Nc1nc2ccc(C(=O)c3ccccc3)cc2[nH]1
5. CC(C)=CCCC1(C)C=Cc2c(O)c3c(c(CC=C(C)C)c2O1)OC12C(=CC4CC1C(C)(C)OC2(C/C=C(/C)C(=O)O)C4O)C3=O (stereo not drawn)
6. C[C@H]1[C@H](C)CC[C@]2(CO)CC[C@]3(C)C(=CCC4[C@@]5(C)CC[C@H](O)C(C)(C)C5CC[C@]43C)[C@H]12 (stereo partly drawn)
7. C#C[C@]1(OC(C)=O)CCC2C3CCC4=CC(=O)CC[C@@H]4C3CC[C@@]21C (stereo partly drawn)
8. C=C/C(C)=C\CC1C(C)(O)CCC2C(C)(C)CCCC21C (stereo not drawn)

Response line:
1.02
1
1
0.998
0.929
1.01
0.977
0.429

List reported normalized growth for each of these compounds:
1. CCC(C)C(=O)O[C@H]1[C@H](O)C2C(CN3CC(C)CCC3[C@@]2(C)O)C2C[C@]34O[C@]5(O)C(OC(=O)C(C)(O)CC)CC[C@@]3(C)C5C(OC(C)=O)[C@@H](OC(C)=O)C4[C@@]21O (stereo partly drawn)
2. Nc1c2ccccc2nc2ccccc12 (tested in a mixture with another compound)
3. CCOC(=O)OC(C)OC(=O)C1N2C(=O)C(NC(=O)[C@H](N)c3ccccc3)C2SC1(C)C (stereo partly drawn)
4. C#C[C@]1(O)CCC2C3CCC4=CC(=O)CC[C@@H]4C3CC[C@@]21C (stereo partly drawn)
5. COC(=O)Nc1nc2ccc(Sc3ccccc3)cc2[nH]1
6. C/C=C(/C)C(=O)OC1CCC2(C)C3CCC4C5(O)CC(O)C6(O)C(CN7CC(C)CCC7C6(C)O)C5(O)CC42OC13O (stereo not drawn)
7. CC(C)(Oc1ccc(CCNC(=O)c2ccc(Cl)cc2)cc1)C(=O)O

Response line:
[0.991, 0.593, 0.962, 0.97, 0.99, 0.955, 0.995]

Quick batch: normalized growth for everything below.
1. CC1(C)CC[C@@]2(C(=O)O)C(C1)C1=CCC3[C@@]4(C)CC[C@H](O)C(C)(C)C4CC[C@@]3(C)[C@]1(C)C[C@@H]2O (stereo partly drawn)
2. C[C@]12CCC(=O)C=C1CCC1C2[C@@H](O)C[C@@]2(C)C1CC[C@]2(O)C(=O)CO (stereo partly drawn)
3. Nc1c2c(nc3ccccc13)CCCC2O (stereo not drawn)
4. CNCc1ccccc1

Response line:
1: 1.02; 2: 0.974; 3: 0.995; 4: 1.05

Could I get normalized growth for every one of these entries?
1. C/C=C(/C)C(=O)O[C@@H]1[C@H](OC(C)=O)[C@@]2(CO)C(CC1(C)C)C1=CCC3[C@@]4(C)CC[C@H](O[C@@H]5O[C@H](C(=O)O)[C@@H](O[C@@H]6O[C@H](CO)[C@@H](O)[C@H](O)[C@H]6O)[C@H](O)[C@H]5O[C@@H]5O[C@H](CO)[C@@H](O)[C@H](O)[C@H]5O)[C@](C)(CO)C4CC[C@@]3(C)[C@]1(C)C[C@H]2O (stereo partly drawn)
2. CC1C(=O)OC2C1CCC1(C)C=CC(=O)C3(C)OC213 (stereo not drawn)
3. Nc1ccc(S(=O)(=O)c2ccc(N)cc2)cc1
4. CCC(C)C1NC(=O)C(CCNCS(=O)(=O)O)NC(=O)C(NC(=O)C(CCNCS(=O)(=O)O)NC(=O)C(NC(=O)C(CCNCS(=O)(=O)O)NC(=O)CCCCC(C)C)C(C)O)CCNC(=O)C(C(C)O)NC(=O)C(CCNCS(=O)(=O)O)NC(=O)C(CCNCS(=O)(=O)O)NC(=O)C(C(C)CC)NC1=O (stereo not drawn) ({Heptanoyl(6-Me)}-[ξDab(CH2SO3H)]T[ξDab(CH2SO3H)][Dab][ξDab(CH2SO3H)]II[ξDab(CH2SO3H)][ξDab(CH2SO3H)]T; lactam 4-C; configuration not given here)
5. COC(=O)C[C@H]1C(C)(C)C2(O)OC34CC2C(=O)[C@]1(C)C3CC[C@]1(C)C4=CC(=O)O[C@H]1c1ccoc1 (stereo partly drawn)
6. CC(=O)NC(C(=O)O)C(C)(C)SN=O (stereo not drawn)
7. N[C@H](C(=O)O)[C@@H]1CC(Cl)=NO1

Response line:
[1.01, 0.989, 0.987, 0.983, 1.01, 1, 0.287]

Would you be so kind as to report normalized growth for each listed record?
1. C[C@@H]1C(=O)O[C@H]2[C@H]1CC[C@@]1(C)C=CC(=O)[C@@]3(C)O[C@@]213
2. CC(=O)/C=C\[C@@H]1[C@@]2(C)CCCC(C)(C)C2CC[C@@]1(C)O (stereo partly drawn)

Response line:
1: 1.01; 2: 0.995
